# System: Lactobacillus clearans
# protocol_summary: Viability of Lactobacillus clearans during storage with preservatives
# assay_conditions: Lactobacillus clearans, 3 months
observation_type: Changes over time during storage, Viability (%) 3 months
API: value field is a number in %; no unit string.

Query string: Entry NCC(=O)O [Glycine] : reported Changes over time during storage, Viability (%) 3 months = ?
Result string: 25

Query string: Subsequent entry: C[C@H](N)C(=O)O [Alanine]
Result string: 30

Query string: Please answer likewise for OC[C@H]1O[C@@H](O[C@H]2[C@H](O)[C@@H](O)C(O)O[C@@H]2CO)[C@H](O)[C@@H](O)[C@H]1O (stereo partly shown) [Lactose]
Result string: 70

Query string: Cool, now N=C(N)NCCC[C@H](N)C(=O)O [Arginine]
Result string: 20

Query string: Next record, please: NCCCC(=O)O
Result string: 65

Query string: Now consider N[C@@H](CS)C(=O)O [Cysteine] and answer again.
Result string: 65

Query string: Let us now turn to NCCS(=O)(=O)O [Taurine]
Result string: 70

Query string: Now this one: N[C@@H](Cc1c[nH]c2ccccc12)C(=O)O [Tryptophan]
Result string: 25

Query string: OC[C@H]1O[C@@](CO)(O[C@H]2O[C@H](CO)[C@@H](O)[C@H](O)[C@H]2O)[C@@H](O)[C@@H]1O [Sucrose] , same question.
Result string: 30

Query string: Lookup N[C@@H](CSSC[C@H](N)C(=O)O)C(=O)O [Cystine]
Result string: 70

Query string: Also check CSCC[C@H](N)C(=O)O [Methionine]
Result string: 65

Query string: Try this molecule next: NC(=O)C[C@H](N)C(=O)O [Asparagine]
Result string: 55

Query string: // query: CC(C)C[C@H](N)C(=O)O [Leucine]
Result string: 25
